# measured_target: Paramecium calmodulin C-domain (residues 76-148) (Paramecium, UniProt P07463 77-149)
# Sequence (P07463 77-149): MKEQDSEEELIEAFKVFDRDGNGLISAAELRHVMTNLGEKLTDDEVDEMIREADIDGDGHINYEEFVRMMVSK
# protocol: fluorescence polarisation
pKd: −log10 of the molar value. Where no end group is shown, it is not given here.
parameter_measured: pKd

Provide measured pKd value, entry: fluorescein-KRKQEEVSAIVIQRAYRRYLLKQKVKK [Fluoresceinated Nav1.2IQp, peptide of residues 1901-1927 of the Nav1.2 alpha-subunit]
≥ 8.00
